// provenance: PubChem BioAssay AID1159580

TEST_NAME: chemical genetic growth profiling, strain panel (AID 1159580);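 also: tested at 20 µM; growth read once vehicle control cultures reached saturation at 30 °C; 1 = growth at the plate median or of vehicle wells; lower values mean less growth of the strain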
ASSAY_SETUP: S. cerevisiae deletion strains, growth OD, locus YER016W, strain bim1, hits give low values
Screen size: about 5,500 compounds; about 2,000 (36%) were called active. Another 18% or so got no clear call; they are omitted. The list shows a part of the results.
List of normalized growth values.
Just the number, please.

Examples with their reported normalized growth follow.
CN(C)C(=O)Oc1ccc[n+](C)c1    1
CC(C)c1nc(N(C)S(C)(=O)=O)nc(-c2ccc(F)cc2)c1/C=C/[C@@H](O)C[C@@H](O)CC(=O)O    1.01
Cc1cccc(C)c1NC(=O)C1CCCCN1C (stereo unspecified)    0.983
COc1cc(NS(C)(=O)=O)ccc1Cc1c2ccccc2nc2ccccc12    0.909
CC1(C)N([O-])[N+](=O)C1(C)Br (stereo unspecified)    0.992
O=c1cccc2n1CC1CC2CN2CCCC[C@@H]12 (stereo partly specified)    0.971
O=C1CCCN1CC#CCN1CCCC1    1.01
CCCn1c(=O)c2[nH]c(C3CCCC3)nc2n(CCC)c1=O    0.98
Clc1ccc(C(Cn2ccnc2)OCc2ccsc2Cl)c(Cl)c1 (stereo unspecified)    0.0611
CCN1C[C@@]2(COC)C3[C@@H](OC)[C@H]4[C@@H]1[C@]3(C(OC)C[C@H]2O)C1C[C@@]2(O)[C@H](OC(=O)c3ccccc3)C1[C@]4(OC(C)=O)[C@@H](O)[C@@H]2OC (stereo partly specified)    1

Quick note, normalized growth for CC[C@@H]1OC(=O)C[C@@H](O)[C@H](C)[C@@H](O[C@@H]2O[C@H](C)[C@@H](O)[C@H](N(C)C)[C@H]2O)[C@@H](CCN2C[C@H](C)C[C@H](C)C2)C[C@@H](C)C(=O)/C=C/C(C)=C\[C@@H]1CO[C@@H]1O[C@H](C)[C@@H](O)[C@@H](OC)[C@H]1OC landed at 0.993

Quick note, normalized growth for COC(=O)[C@@H]1OC(=O)C2OC23[C@@]1(C)CCC1[C@@]2(C)CCC(=O)C(C)(C)C2C[C@@H](OC(C)=O)[C@]13C (stereo partly specified) landed at 1.02

Quick note, normalized growth for COc1ccc(CCC(=O)c2c(O)cc(O[C@@H]3O[C@H](CO)C(O)[C@H](O)C3O[C@@H]3O[C@@H](C)[C@H](O)[C@@H](O)[C@H]3O)cc2O)cc1O (stereo partly specified) landed at 1.03

Quick note, normalized growth for COC(=O)/C(C)=C\CC12OC(C)(C)C3CC(C=C4C(=O)c5c(OC)c6c(c(CC=C(C)C)c5OC431)OC(C)(CCC=C(C)C)C=C6)C2=O (stereo unspecified) landed at 1.01

Quick note, normalized growth for CC12CCCCC1(Br)[N+](=O)N2[O-] (stereo unspecified) landed at 0.999

Quick note, normalized growth for Fc1ccc([C@@H]2CCNC[C@H]2COc2ccc3c(c2)OCO3)cc1 landed at 0.99

Quick note, normalized growth for CC(=O)C1CC[C@H]2C3CC[C@H]4C[C@H](O)CC[C@]4(C)C3CC[C@]12C (stereo partly specified) landed at 0.998

Quick note, normalized growth for c1ccc2c(CC3=NCCN3)cccc2c1 landed at 0.979

Quick note, normalized growth for CC(=O)Oc1c2c(c3c(c1CC=C(C)C)O[C@]14C(=C[C@@H]5CC1C(C)(C)OC4(C/C=C(\C)C(=O)O)C5=O)C3=O)OC(C)(CCC=C(C)C)C=C2 (stereo partly specified) landed at 0.971

Quick note, normalized growth for C=CCS(=O)C[C@H](N)C(=O)O (stereo partly specified) landed at 0.982

Quick note, normalized growth for Oc1c(Cl)cc(Cl)c(Cl)c1Cc1c(O)c(Cl)cc(Cl)c1Cl landed at 0.0638
